# kon values compiled below
- Measured on: T1, his-tagged human CDH6 extracellular region protein (hCDH6 ECD-his) (human, UniProt P55285 19-615)
- T1 construct: also called Human CDH6-his; hCDH6-his; not shown: his tag
- T1 sequence: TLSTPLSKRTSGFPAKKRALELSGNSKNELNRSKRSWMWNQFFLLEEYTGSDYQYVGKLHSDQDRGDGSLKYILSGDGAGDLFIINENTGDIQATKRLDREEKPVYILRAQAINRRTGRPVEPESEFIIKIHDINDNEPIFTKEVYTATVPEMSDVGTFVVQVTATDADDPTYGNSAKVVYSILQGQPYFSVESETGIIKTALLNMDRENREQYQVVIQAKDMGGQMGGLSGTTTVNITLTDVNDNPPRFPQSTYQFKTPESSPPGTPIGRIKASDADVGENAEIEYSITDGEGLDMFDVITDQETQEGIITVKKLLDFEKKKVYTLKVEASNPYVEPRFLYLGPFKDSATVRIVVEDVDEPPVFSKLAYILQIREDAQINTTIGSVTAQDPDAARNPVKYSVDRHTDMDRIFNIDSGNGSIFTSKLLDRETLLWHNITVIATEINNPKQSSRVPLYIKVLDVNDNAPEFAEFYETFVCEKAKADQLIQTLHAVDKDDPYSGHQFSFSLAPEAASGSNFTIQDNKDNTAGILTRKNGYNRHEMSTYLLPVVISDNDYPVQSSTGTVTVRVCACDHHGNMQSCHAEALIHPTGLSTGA
- Method: SPR Biacore 8K, antibody captured on Protein A
Assay endpoint: kon (M⁻¹ s⁻¹)

• CHI-CDH6-8 (antibody, human IgG1, kappa, V domains shown, also called chimeric antibody of murine CDH6-8) VH: EVQLQQSGPELVKPGDSVKMSCKASGYTFTDYYMAWIKQNHGKSLEWIGYIYPNNGGTDYNQKFRGKATLTVDKSSSAAYMELHSLTSEDSAVYYCAREIGTLYGDYYAMDYWGQGTSVTVSS VL: DIQMTQSPASLSASVGETVTITCRASENIDSYLAWYQQKQGKSPQLLVYTATLLADGVPSRFSGSGSGTQYSLKINSLQSEDVARYYCQHYYSTPPTFGSGTKLEIKR = 121000
• CHI-CDH6-6 (antibody, human IgG1, kappa, V domains shown, also called CHI-hCDH6-6; chimeric antibody of murine CDH6-6) VH: EVQLQQSGPELVKPGDSVKMSCKASGYTFTDYYMAWVRQSHRKSLEWIGYIFPNSGGTDYSQKFKGKATLTVDKSSSTVYMELHSLTSEDSAVYYCARELGADYGDYYAMDHWGQGTSVSVSS VL: DIQMTQSPASLSASVGETVTITCRASENIDSYLAWYQQKQGKSPQLLVYSATLLADGVPSRFSGSGSGTQYSLKINSLKSEDVARYYCQHYYRTPPTFGSGTKLEIKR = 86800
• CHI-CDH6-2 (antibody, human IgG1, kappa, V domains shown, also called chimeric antibody of murine CDH6-2) VH: EVQLQQSGPELVKPGASVRISCKASGYTFTDYYMNWVKQSHGKSLEWIGDIDPNNANTTYNQKFKGKATLTVDKSSSTAYMELRSLTSEDSAVYSCASFGYDVEWFGYWGQGTLVTVSA VL: QIVLTQSPALMSASPGEKVTMTCSASSSVSYMYWYQQKPRSSPKPWIYLTSNLASGVPARFSGSGSGTSYSLTISSMEAEDAATYYCQQWSSNPFTFGSGTKLEIKR = 503000

Data provenance: patent US20260234242A1
